- assay.system: UniProt Q3SYC2
- Sequence (Q3SYC2 whole entry): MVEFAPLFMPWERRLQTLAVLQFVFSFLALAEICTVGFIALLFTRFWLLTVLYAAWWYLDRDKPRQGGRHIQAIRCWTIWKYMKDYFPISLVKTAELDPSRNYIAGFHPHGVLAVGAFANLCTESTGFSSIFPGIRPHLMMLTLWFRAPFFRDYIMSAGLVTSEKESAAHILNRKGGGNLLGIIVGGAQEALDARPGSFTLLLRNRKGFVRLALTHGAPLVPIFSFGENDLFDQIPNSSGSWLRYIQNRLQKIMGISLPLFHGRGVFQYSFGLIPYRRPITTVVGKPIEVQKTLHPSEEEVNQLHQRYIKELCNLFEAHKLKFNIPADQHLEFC
- assay.overview: Test Example 1: Test of MGAT2 inhibitory action (human MGAT2 enzyme fraction from Sf9 cells, free CoA detected by CPM fluorescence)
- Format: biochemical
- study.conditions: human MGAT2 enzyme fraction expressed in Sf9 insect cells, 0.5 μg/ml, 2-monooleoyl glycerol 0.78 μM, oleoyl-CoA 5.3 μM, room temperature 20 min, read-out: Activity Value [nM] (IC50, concentration at which 50% of produced free CoA was inhibited)
quantity.name: log10 IC50 (log10 of the value in nM)
Record value = log10 of IC50 given in nM.

Need log10 IC50 of `COc1cc(F)cc(F)c1NS(=O)(=O)c1ccc2c(c1)CN(C(=O)Nc1ccc(C(C)(C)C)cc1)C2` , thanks. 2.29

Need log10 IC50 of `O=C(OC1CCCCC1)N1CCc2cc(S(=O)(=O)Nc3ccc(CCCC4CCCC4)cc3F)ccc2C1` , thanks. 2.34

Need log10 IC50 of `CC(C)(C)c1ccc(CCN2CCc3cc(S(=O)(=O)Nc4ccc(OCCCc5ccccc5)cc4F)ccc3C2)cc1` , thanks. 2.24

Need log10 IC50 of CC(c1ccc(C(C)(C)C)nc1)N1CCc2cc(S(=O)(=O)Nc3ccc(CCCC4CCCC4)cc3F)ccc2C1 (stereo not drawn) , thanks. 1.11

Need log10 IC50 of `CC(C)(C)c1cnc(CCN2CCc3cc(S(=O)(=O)Nc4ccc(CCCC5CCCC5)cc4F)ccc3C2)nc1` , thanks. 1.60

Need log10 IC50 of `CC(C)(C)c1ccc(CCN2CCc3cc(S(=O)(=O)Nc4ccc(CCCC5CCCCC5)cc4F)ccc3C2)cc1` , thanks. 1.79

Need log10 IC50 of `CC(C)CCCOc1ccc(NS(=O)(=O)c2ccc3c(c2)CN(C(=O)Nc2ccc(C(C)(C)C)cc2)C3)c(F)c1` , thanks. 2.00

Need log10 IC50 of `CCCCCCOc1ccc(NS(=O)(=O)c2ccc3c(c2)CCN(Cc2cnc(C(C)(C)C)s2)C3)c(F)c1` , thanks. 2.29

Need log10 IC50 of `CC(C)(C)c1ccc(C(=O)N2CCc3cc(S(=O)(=O)Nc4ccc(CCCC5CCCC5)cc4F)ccc3C2)cc1` , thanks. 2.32

Need log10 IC50 of `CCCCCCOc1ccc(NS(=O)(=O)c2ccc3c(c2)CN(C(=O)Nc2ccc(C(C)(C)C)cc2)C3)c(F)c1` , thanks. 1.63

Need log10 IC50 of `CCCCCCCc1ccc(NS(=O)(=O)c2ccc3c(c2)CCN(Cc2ccc(C(F)(F)F)nc2)C3)c(F)c1` , thanks. 2.13

Need log10 IC50 of CCC(c1ccc(C(C)(C)C)cc1)N1CCc2cc(S(=O)(=O)Nc3ccc(OCCCc4ccccc4)cc3F)ccc2C1 (stereo not drawn) , thanks. 2.37

Need log10 IC50 of `CC(C)(C)c1ccc(NC(=O)N2Cc3ccc(S(=O)(=O)Nc4ccc(OCCCCCc5ccccc5)cc4F)cc3C2)cc1` , thanks. 1.00

Need log10 IC50 of `CCCCCCOc1ccc(NS(=O)(=O)c2ccc3c(c2)CCN(CCc2ccc(C(C)(C)C)nc2)C3)c(F)c1` , thanks. 2.41

Need log10 IC50 of `CC(C)(C)c1ccc(CCN2CCc3cc(S(=O)(=O)Nc4ccc(CCCCCc5ccccc5)cc4F)ccc3C2)cc1` , thanks. 1.72

Need log10 IC50 of `CC(C)(C)c1ccc(CN2CCc3cc(S(=O)(=O)Nc4ccc(OCCCCCc5ccccc5)cc4F)ccc3C2)cn1` , thanks. 1.56

Need log10 IC50 of `CCCCCCOc1ccc(NS(=O)(=O)c2ccc3c(c2)CCN(C(=O)Nc2ccc(CCCC)cc2)C3)c(F)c1` , thanks. 1.88

Need log10 IC50 of `CC(C)(C)c1ccc(NC(=O)N2Cc3ccc(S(=O)(=O)Nc4ccc(OCCOc5ccccc5)cc4F)cc3C2)cc1` , thanks. 2.13

Need log10 IC50 of `CCCCCOc1ccc(NS(=O)(=O)c2ccc3c(c2)CN(C(=O)Nc2ccc(C(C)(C)C)cc2)C3)c(F)c1` , thanks. 2.17

Need log10 IC50 of `O=S(=O)(Nc1ccc(CCCC2CCCC2)cc1F)c1ccc2c(c1)CCN(Cc1cnc(C(F)(F)F)nc1)C2` , thanks. 2.36

Need log10 IC50 of `C/C=C\CCCCCOc1ccc(NS(=O)(=O)c2ccc3c(c2)CN(C(=O)Nc2ccc(C(C)(C)C)cc2)C3)c(F)c1` , thanks. 0.30
